PROCEDURE_TEXT: Photochromic properties of spiropyran compounds in methyl polymethacrylate film
Type: physicochemical
ASSAY_CONTEXT: time until absorbancy decreases to one-half {ε(60 sec)-ε(0 sec)} after irradiation for 60 seconds
# t1/2 (half-value period) >= 20 s gives criterion met, anything below gives criterion not met

Is t1/2 (half-value period) for CCCC12CC=CC(CCC1)C21C=C(CC)c2ccc3c(-c4ccccc4)cccc3c2O1 (stereo not drawn) [compound 31] at or above 20 s?
criterion met

Hello, I need to know if CCCC1=Cc2c(ccc3ccccc23)OC12C1C=CCC2CCC1 (stereo not drawn) [compound 33] has measured t1/2 (half-value period) not below 20 s. Thanks!
criterion not met

Is t1/2 (half-value period) at least 20 s? Consider COc1ccc(C2=Cc3c(ccc4ccccc34)OC23C2C=CCC3CCC2)cc1 (stereo not drawn) [compound 36]
criterion met

Item CCCC1=C(Cc2ccccc2)c2c(ccc3ccccc23)OC12C1C=CCC2CCC1 (stereo not drawn) [compound 40] with t1/2 (half-value period) of 20 s or above?
criterion not met

# bool: t1/2 (half-value period) of CC1(C)CCC2(C)CC=CC1C21C=C(c2ccccc2)c2cccnc2O1 (stereo not drawn) [compound 30] >= 20 s
criterion met

Assess whether reported t1/2 (half-value period) for ClC12CC=CC(CCC1)C21C=C(Cc2ccccc2)c2c(cnc3ccccc23)O1 (stereo not drawn) [compound 28] sits at 20 s or higher.
criterion not met

Evaluate CCCCC1=CC2(Oc3c(C#N)cccc31)C1C=CCC2CCC1 (stereo not drawn) [compound 29] : t1/2 (half-value period) at minimum 20 s?
criterion not met

hey, is t1/2 (half-value period) for this one >= 20 s? C1=CC2CCCC(C1)C21Oc2ccc3ccccc3c2C=C1CCc1ccccc1 (stereo not drawn) [compound 34]
criterion met

# check: t1/2 (half-value period) of CC(C)C1=Cc2c(ccc3ccccc23)OC12C1C=CCC2CCC1 (stereo not drawn) [compound 35] is greater than or equal to 20 s
criterion not met
